Origin of the recorded values: patent US5705531A

TGT: Na^+,K^+ -ATPase (Homo sapiens)
Construct: Na^+,K^+ -ATPase receptor purified according to Jorghensen; from tissue
MEASUREMENT_DESCRIPTION: displacement of the specific 3H-ouabain binding from the purified Na+,K+-ATPase receptor
EXPERIMENTAL_CONDITIONS: 3H-ouabain, purified Na+,K+-ATPase; read-out: Binding 3H-Ouab. Displacement log IC50 (converted)
Description: To test the affinity for the receptor site of the Na^+,K^+ -ATPase and the agonist or antagonist activity on the enzyme, the following tests were used: a) displacement of the specific ^3 H-ouabain binding from the Na^+,K^+ -ATPase receptor purified according to Jorghensen (Jorghensen P., BBA, 1974, 356, 36) and Erdmann (Erdmann E. et al., Arzneim. Forsh., 1984, 34, 1314);
READOUT_KIND: IC50 (µM)
Reply with just the number (in µM).

# lookup: CN(C)CCO/N=C/[C@H]1CC[C@]2(O)C/C(=C\CCO)CC[C@]12C [I-bx] on Na^+,K^+ -ATPase (Homo sapiens), IC50 = 12.6

IC50 for Na^+,K^+ -ATPase (Homo sapiens) with input CN(C)CCO/N=C/[C@H]1CC[C@]2(O)C[C@@H](c3ccccc3)CC[C@]12C [I-ap] equals 2

Measured IC50 (Na^+,K^+ -ATPase (Homo sapiens)), entry C[C@]12CC[C@H](c3ccc(CO)cc3)C[C@@]1(O)CC[C@@H]2/C=N/OCCN [I-bb] : 1.58

Let me check: Cc1ccc([C@H]2CC[C@]3(C)[C@@H](/C=N/OCCN(C)C)CC[C@]3(O)C2)cc1 [I-bh] , system Na^+,K^+ -ATPase (Homo sapiens), measured IC50 is 6.31

Tested on Na^+,K^+ -ATPase (Homo sapiens): CN(C)CCO/N=C/[C@H]1CC[C@]2(O)C[C@@H](c3cccc(O)c3)CC[C@]12C [I-au] . Observed IC50: 6.31

Tested on Na^+,K^+ -ATPase (Homo sapiens): CN(C)CCO/N=C/[C@H]1CC[C@]2(O)C/C(=C/CCO)CC[C@]12C [I-by] . Observed IC50: 20

Log: Na^+,K^+ -ATPase (Homo sapiens), compound CN(C)CCO/N=C/[C@H]1CC[C@]2(O)C[C@@H](c3ccc(O)cc3)CC[C@]12C [I-ax] , IC50 = 1.58

Record CN(C)CCO/N=C/[C@H]1CC[C@]2(O)C[C@@H](c3ccc(CO)cc3)CC[C@]12C [I-bc] ; system Na^+,K^+ -ATPase (Homo sapiens); IC50 = 5.01
